# test target: human MGL from HeLa cells (Homo sapiens)
# Construct: combining endogenously expressed MGL from HeLa cells with test compounds; endogenous in cells; host or cells: HeLa cells / cell homogenates
# Sequence (Q99685 whole entry): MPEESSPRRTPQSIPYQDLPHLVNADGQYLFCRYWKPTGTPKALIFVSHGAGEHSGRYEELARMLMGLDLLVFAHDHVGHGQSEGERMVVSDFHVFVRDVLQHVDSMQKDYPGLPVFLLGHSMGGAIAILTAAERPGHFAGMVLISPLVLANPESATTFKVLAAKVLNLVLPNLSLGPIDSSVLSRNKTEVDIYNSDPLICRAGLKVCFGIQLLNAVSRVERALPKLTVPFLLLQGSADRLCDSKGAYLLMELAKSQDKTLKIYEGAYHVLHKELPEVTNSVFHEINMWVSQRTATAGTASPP
# experiment summary: In vitro MGL activity assay: [glycerol-1,3-3H]-oleyl glycerol cleavage by MGL from HeLa cells
# Type: biochemical
# condition description: 300 nM [Glycerol-1,3-3H]-oleyl glycerol, one hour incubation
pIC50: −log10 of the molar value.
observable: pIC50

Guide cases for pIC50, answers given:
So for C[C@H]1c2nn(C)c(-c3cc(F)c(F)c(F)c3)c2CCN1C(=O)c1cccc2cnn(C)c12 [Example 209] , the logged pIC50 turned out to be 7.96

So for COc1cccc(C(=O)N2CCc3c(nn(-c4ccccc4)c3-c3ccccc3)[C@@H]2C)c1 [Example 257] , the logged pIC50 turned out to be 7.00

So for C[C@H]1c2nn(C)c(-c3cc(F)cc(F)c3)c2CCN1C(=O)c1ccc2ncccc2n1 [Example 170] , the logged pIC50 turned out to be 7.63

So for C[C@H]1c2nn(C)c(-c3cc(F)cc(F)c3)c2CCN1C(=O)c1cc2nccnc2cc1F [Example 171] , the logged pIC50 turned out to be 7.89

So for Cn1nc2c(c1-c1ccccc1)CCN(C(=O)c1cccc3cncn13)C2 [Example 79] , the logged pIC50 turned out to be 5.92

(I) C[C@H]1c2nn(C)c(-c3cccc(Cl)c3)c2CCN1C(=O)c1cc(Cl)cc(OC(F)(F)F)c1 [Example 116]
(II) C[C@H]1c2nn(C)c(-c3cc(F)c(F)c(F)c3)c2CCN1C(=O)c1ccc(-c2ccccn2)s1 [Example 325]
Of I and II , whose reported pIC50 is the larger number? # answer = label of selected item
II
(II: 8.10, I: 6.70)
